- test-system: Death-associated protein kinase 1 (Homo sapiens) (UniProt P53355)
- Sequence (P53355 whole entry, looked up): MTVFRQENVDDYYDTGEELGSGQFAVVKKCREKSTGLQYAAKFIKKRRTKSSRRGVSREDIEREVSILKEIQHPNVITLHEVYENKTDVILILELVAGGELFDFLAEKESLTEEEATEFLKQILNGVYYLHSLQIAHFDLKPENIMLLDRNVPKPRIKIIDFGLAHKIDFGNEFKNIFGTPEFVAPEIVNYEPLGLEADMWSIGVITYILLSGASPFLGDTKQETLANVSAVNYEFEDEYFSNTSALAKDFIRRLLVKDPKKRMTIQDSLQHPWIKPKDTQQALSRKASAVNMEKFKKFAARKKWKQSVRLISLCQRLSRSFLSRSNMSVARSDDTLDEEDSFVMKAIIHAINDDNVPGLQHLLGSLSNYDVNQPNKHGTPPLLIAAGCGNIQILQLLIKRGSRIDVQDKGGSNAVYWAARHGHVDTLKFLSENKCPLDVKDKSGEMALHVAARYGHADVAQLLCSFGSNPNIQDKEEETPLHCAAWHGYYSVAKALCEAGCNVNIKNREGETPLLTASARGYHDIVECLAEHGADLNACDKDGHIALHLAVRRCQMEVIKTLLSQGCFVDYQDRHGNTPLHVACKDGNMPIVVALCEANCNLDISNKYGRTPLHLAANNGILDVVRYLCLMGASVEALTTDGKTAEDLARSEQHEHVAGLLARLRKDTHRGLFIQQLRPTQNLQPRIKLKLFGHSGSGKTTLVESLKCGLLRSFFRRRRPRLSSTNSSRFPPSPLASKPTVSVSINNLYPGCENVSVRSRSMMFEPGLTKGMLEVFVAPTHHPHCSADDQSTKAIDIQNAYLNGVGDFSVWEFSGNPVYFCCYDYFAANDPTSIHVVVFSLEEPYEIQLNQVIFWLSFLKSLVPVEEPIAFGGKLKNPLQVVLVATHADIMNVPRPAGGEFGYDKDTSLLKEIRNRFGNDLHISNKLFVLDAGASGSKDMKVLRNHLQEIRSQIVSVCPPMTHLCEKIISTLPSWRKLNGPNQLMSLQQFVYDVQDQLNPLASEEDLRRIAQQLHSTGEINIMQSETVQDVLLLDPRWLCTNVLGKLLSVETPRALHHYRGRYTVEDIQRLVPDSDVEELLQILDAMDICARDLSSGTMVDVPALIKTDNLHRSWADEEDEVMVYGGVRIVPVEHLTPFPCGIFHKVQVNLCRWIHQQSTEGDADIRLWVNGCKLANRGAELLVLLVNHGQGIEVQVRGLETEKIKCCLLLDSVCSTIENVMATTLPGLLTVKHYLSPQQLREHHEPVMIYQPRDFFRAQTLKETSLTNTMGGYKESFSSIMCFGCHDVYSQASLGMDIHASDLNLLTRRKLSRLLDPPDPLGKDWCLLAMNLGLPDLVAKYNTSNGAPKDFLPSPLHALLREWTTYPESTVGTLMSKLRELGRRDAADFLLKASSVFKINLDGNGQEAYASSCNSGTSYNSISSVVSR
- condition-details: at 10 µM
// values below are reported residual activity

[
  {
    "smiles-str": "CC(C)n1cnc2/c(=N/c3cccc(Cl)c3)nc(NCCO)[nH]c21",
    "residual activity (%)": 94
  },
  {
    "smiles-str": "Oc1c2ccccc2c2c3c(cccc13)N=N2",
    "residual activity (%)": 68
  },
  {
    "smiles-str": "CNc1cc2c(Nc3cccc(Br)c3)ncnc2cn1",
    "residual activity (%)": 60
  },
  {
    "smiles-str": "COc1cc2ncnc(Nc3ccc(NC(=O)c4ccccc4)cc3)c2cc1OC",
    "residual activity (%)": 83
  },
  {
    "smiles-str": "C[C@@H](N)[C@H]1CC[C@H](C(=O)Nc2ccncc2)CC1",
    "residual activity (%)": 104
  },
  {
    "smiles-str": "CC#CC(=O)Nc1cc2c(Nc3ccc(F)c(Cl)c3)ncnc2cn1",
    "residual activity (%)": 90
  },
  {
    "smiles-str": "COc1cc2ncc(-c3ccccc3)nc2cc1OC",
    "residual activity (%)": 78
  },
  {
    "smiles-str": "CC(=O)O/N=C1\\C(=C2\\C(=O)Nc3cc(Br)ccc32)Nc2ccccc21",
    "residual activity (%)": 84
  },
  {
    "smiles-str": "CC(=O)c1ccc(N2CCOCC2)cc1O",
    "residual activity (%)": 89
  },
  {
    "smiles-str": "Oc1ccc(-c2nc(-c3ccc(F)cc3)c(-c3ccncc3)[nH]2)cc1",
    "residual activity (%)": 76
  },
  {
    "smiles-str": "COc1cc2ncnc(N3CCN(C(=O)Nc4ccc(Oc5ccccc5)cc4)CC3)c2cc1OC",
    "residual activity (%)": 102
  },
  {
    "smiles-str": "Cc1ccc(S(=O)(=O)/C=C/C#N)cc1",
    "residual activity (%)": 87
  }
]

----------
- test-system: Proto-oncogene tyrosine-protein kinase receptor Ret (Homo sapiens) (UniProt P07949)
- Sequence (P07949 whole entry): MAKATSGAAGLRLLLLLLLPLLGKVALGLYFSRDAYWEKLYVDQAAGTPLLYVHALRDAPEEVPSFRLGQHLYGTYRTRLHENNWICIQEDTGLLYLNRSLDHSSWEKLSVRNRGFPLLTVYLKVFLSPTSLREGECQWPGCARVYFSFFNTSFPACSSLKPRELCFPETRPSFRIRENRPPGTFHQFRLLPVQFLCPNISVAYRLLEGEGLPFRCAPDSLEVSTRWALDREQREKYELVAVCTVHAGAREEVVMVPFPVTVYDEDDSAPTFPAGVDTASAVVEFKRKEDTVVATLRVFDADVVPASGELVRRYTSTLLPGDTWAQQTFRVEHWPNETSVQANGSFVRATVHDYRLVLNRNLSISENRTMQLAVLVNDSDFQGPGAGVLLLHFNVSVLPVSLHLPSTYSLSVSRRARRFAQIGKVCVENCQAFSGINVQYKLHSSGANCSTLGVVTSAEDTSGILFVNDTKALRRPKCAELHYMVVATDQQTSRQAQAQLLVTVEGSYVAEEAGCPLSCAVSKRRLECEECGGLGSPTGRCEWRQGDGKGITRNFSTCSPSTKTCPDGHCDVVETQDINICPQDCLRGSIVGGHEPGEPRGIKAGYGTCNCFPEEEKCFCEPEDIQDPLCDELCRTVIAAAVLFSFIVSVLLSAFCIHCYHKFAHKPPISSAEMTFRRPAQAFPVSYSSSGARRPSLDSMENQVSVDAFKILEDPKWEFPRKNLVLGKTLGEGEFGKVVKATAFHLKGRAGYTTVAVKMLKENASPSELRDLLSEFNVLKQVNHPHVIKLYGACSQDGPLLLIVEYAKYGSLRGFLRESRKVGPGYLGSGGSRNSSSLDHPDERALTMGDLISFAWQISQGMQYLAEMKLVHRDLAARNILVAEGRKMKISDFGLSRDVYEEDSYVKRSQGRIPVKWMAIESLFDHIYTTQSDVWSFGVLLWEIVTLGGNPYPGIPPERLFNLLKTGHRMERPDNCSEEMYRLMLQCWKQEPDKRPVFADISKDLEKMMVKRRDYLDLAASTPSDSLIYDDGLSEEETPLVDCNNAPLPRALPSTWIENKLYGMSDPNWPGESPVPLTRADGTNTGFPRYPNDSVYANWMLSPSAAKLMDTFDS
- condition-details: at 1 µM
Note to self: residual activity under 90% means 1, ties and anything higher get -1.

[
  {
    "compound": "Cn1cnc2cc3c(Nc4cccc(Br)c4)ncnc3cc21",
    "cat": 1
  },
  {
    "compound": "COc1cc2ncnc(Nc3ccc(NC(=O)c4ccccc4)cc3)c2cc1OC",
    "cat": 1
  },
  {
    "compound": "CO[C@H]1[C@@H](OC)C[C@H](C)[C@@H](OC)C2=CC(=O)C=C(NC(=O)/C(C)=C/C=C/[C@H](OC)[C@@H](OC(N)=O)/C(C)=C/[C@@H]1C)C2=O",
    "cat": -1
  },
  {
    "compound": "COc1cccc(-c2cc(=O)c3ccccc3o2)c1N",
    "cat": -1
  },
  {
    "compound": "O=C1Nc2ccccc2/C1=C1/Nc2ccccc2/C1=N\\OCCC(O)CO (stereo not given)",
    "cat": 1
  },
  {
    "compound": "Cc1cccc(-c2[nH]c(C(C)(C)C)nc2-c2ccc3c(c2)OCO3)n1",
    "cat": -1
  },
  {
    "compound": "O=c1c2ccccc2[nH]c(=S)n1CCN1CCC(=C(c2ccc(F)cc2)c2ccc(F)cc2)CC1",
    "cat": -1
  }
]

----------
- test-system: Hepatocyte growth factor receptor (Homo sapiens) (UniProt P08581)
- Sequence (P08581 whole entry): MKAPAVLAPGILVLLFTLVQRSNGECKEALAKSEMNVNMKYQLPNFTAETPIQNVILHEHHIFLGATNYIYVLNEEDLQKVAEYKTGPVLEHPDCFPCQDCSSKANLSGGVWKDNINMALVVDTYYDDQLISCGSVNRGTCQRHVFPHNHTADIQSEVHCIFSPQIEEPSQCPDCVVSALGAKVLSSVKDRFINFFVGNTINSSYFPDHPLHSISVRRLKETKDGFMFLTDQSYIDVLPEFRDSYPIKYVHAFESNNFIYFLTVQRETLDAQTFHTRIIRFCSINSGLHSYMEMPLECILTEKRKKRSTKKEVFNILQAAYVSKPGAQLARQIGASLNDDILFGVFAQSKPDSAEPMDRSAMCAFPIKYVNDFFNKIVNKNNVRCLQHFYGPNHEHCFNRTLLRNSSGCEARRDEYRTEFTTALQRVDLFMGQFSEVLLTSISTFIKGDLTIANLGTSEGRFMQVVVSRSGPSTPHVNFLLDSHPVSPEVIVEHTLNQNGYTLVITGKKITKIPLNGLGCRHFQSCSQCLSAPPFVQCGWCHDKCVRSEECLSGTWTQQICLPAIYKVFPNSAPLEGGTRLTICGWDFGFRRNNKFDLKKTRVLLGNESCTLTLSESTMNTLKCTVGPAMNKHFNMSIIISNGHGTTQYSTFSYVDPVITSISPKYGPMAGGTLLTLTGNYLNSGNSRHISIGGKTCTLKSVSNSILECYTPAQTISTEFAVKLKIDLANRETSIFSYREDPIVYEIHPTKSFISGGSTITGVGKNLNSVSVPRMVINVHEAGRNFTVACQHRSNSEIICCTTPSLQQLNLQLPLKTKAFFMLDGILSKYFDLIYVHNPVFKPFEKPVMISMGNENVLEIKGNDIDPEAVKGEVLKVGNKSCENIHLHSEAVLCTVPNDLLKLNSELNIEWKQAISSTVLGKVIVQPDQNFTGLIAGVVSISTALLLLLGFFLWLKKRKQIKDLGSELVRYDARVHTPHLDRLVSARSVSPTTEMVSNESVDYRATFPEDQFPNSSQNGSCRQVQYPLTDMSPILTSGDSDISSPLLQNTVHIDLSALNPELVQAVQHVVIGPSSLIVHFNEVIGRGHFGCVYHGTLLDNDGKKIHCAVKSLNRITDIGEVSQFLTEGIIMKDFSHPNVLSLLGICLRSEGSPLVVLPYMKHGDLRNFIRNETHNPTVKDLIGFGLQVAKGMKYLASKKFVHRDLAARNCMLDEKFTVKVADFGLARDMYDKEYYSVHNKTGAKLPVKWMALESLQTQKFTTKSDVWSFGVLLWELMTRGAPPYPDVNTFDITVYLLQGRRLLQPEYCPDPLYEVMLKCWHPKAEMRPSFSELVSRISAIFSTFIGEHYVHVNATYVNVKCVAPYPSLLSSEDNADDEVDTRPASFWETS
- condition-details: at 10 µM

[
  {
    "smiles-str": "COc1ccc(C(=O)Nc2sc3c(c2C(N)=O)CCCC3)cc1OC",
    "test-system": "Hepatocyte growth factor receptor (Homo sapiens) (UniProt P08581)",
    "value-unit": "%",
    "residual activity": 110
  },
  {
    "smiles-str": "CCN(CC)C(=O)c1ccc(Nc2nc(OCC3CCCCC3)c3nc[nH]c3n2)cc1",
    "test-system": "Hepatocyte growth factor receptor (Homo sapiens) (UniProt P08581)",
    "value-unit": "%",
    "residual activity": 9
  },
  {
    "smiles-str": "COc1cc2ncc(-c3ccccc3)nc2cc1OC",
    "test-system": "Hepatocyte growth factor receptor (Homo sapiens) (UniProt P08581)",
    "value-unit": "%",
    "residual activity": 68
  }
]

----------
- test-system: SRSF protein kinase 1 (Homo sapiens)
- condition-details: at 10 µM

[
  {
    "smiles-str": "O=C(O)c1ccc2c3c1cccc3c(=O)n1c3ccccc3nc21",
    "residual activity (%)": 21
  },
  {
    "smiles-str": "Nc1cccc(-c2cc3c(Oc4cccc(O)c4)ncnc3[nH]2)c1",
    "residual activity (%)": 80
  },
  {
    "smiles-str": "CO[C@@H]1[C@H](N(C)C(=O)c2ccccc2)C[C@H]2O[C@]1(C)n1c3ccccc3c3c4c(c5c6ccccc6n2c5c31)C(=O)NC4",
    "residual activity (%)": 55
  },
  {
    "smiles-str": "CC#CC(=O)Nc1cc2c(Nc3ccc(F)c(Cl)c3)ncnc2cn1",
    "residual activity (%)": 100
  },
  {
    "smiles-str": "O=c1c2ccccc2[nH]c(=S)n1CCN1CCC(=C(c2ccc(F)cc2)c2ccc(F)cc2)CC1",
    "residual activity (%)": 81
  },
  {
    "smiles-str": "COc1ccc(CNc2nc(N(CCO)CCO)nc3c2ncn3C(C)C)cc1",
    "residual activity (%)": 67
  },
  {
    "smiles-str": "Cc1nc(-c2ccccc2)c(-c2ccncc2)o1",
    "residual activity (%)": 109
  },
  {
    "smiles-str": "Cc1ccc(NC2=CC(=O)c3sc(C)nc3C2=O)cc1",
    "residual activity (%)": 96
  },
  {
    "smiles-str": "O=C(Nc1cccc(Nc2cc(Nc3cccc(C(F)(F)F)c3)ncn2)c1)C1CC1",
    "residual activity (%)": 88
  },
  {
    "smiles-str": "Oc1n[nH]c2nnc(-c3c(-c4ccccc4)nn4ccccc34)cc12",
    "residual activity (%)": 96
  }
]

----------
- test-system: Protein kinase C alpha type (Homo sapiens)
- condition-details: at 10 µM

[
  {
    "smiles-str": "COc1ccc(S(=O)(=O)N(CCO)c2ccccc2CN(C)C/C=C/c2ccc(Cl)cc2)cc1",
    "value-unit": "%",
    "residual activity": 94
  },
  {
    "smiles-str": "O=C1c2ccccc2-[n+]2ccc3c([nH]c4ccccc43)c21",
    "value-unit": "%",
    "residual activity": 98
  },
  {
    "smiles-str": "CCOc1cc2ncnc(Nc3cccc(Br)c3)c2cc1OCC",
    "value-unit": "%",
    "residual activity": 97
  }
]

----------
- test-system: Ribosomal protein S6 kinase alpha-6 (Homo sapiens)
- condition-details: at 10 µM
molecules and their reported residual activity

[
  {
    "molecule": "Oc1c2ccccc2c2c3c(cccc13)N=N2",
    "residual activity (%)": 52
  },
  {
    "molecule": "Nc1n[nH]c2nnc(-c3c(-c4ccccc4)nn4ccccc34)cc12",
    "residual activity (%)": 88
  },
  {
    "molecule": "c1ccc2c(-c3ccncc3)c[nH]c2c1",
    "residual activity (%)": 107
  },
  {
    "molecule": "N#Cc1cnc2cnc(NCc3cccnc3)cc2c1Nc1ccc(F)c(Cl)c1",
    "residual activity (%)": 93
  },
  {
    "molecule": "Nc1ccc2ncnc(NCCc3ccc(Oc4ccccc4)cc3)c2c1",
    "residual activity (%)": 77
  },
  {
    "molecule": "O=C1NC(=O)/C(=C/c2ccc3c(c2)OC(F)(F)O3)S1",
    "residual activity (%)": 103
  },
  {
    "molecule": "CCN(CC)CCCCN1c2ccccc2Oc2ccc(Cl)cc21",
    "residual activity (%)": 104
  },
  {
    "molecule": "O=c1c2ccccc2[nH]c(=S)n1CCN1CCC(=C(c2ccc(F)cc2)c2ccc(F)cc2)CC1",
    "residual activity (%)": 91
  },
  {
    "molecule": "Ic1cccc(CSc2nnc(-c3ccncc3)o2)c1",
    "residual activity (%)": 100
  },
  {
    "molecule": "O=C1NC(=O)/C(=C\\c2ccc3nccnc3c2)S1",
    "residual activity (%)": 99
  },
  {
    "molecule": "O=C1Nc2ccccc2/C1=C1/Nc2ccccc2/C1=N\\OCCC(O)CO (stereo not drawn)",
    "residual activity (%)": 7
  },
  {
    "molecule": "Cc1cc(Nc2nc(-c3ccccc3)nc3ccccc23)n[nH]1",
    "residual activity (%)": 8
  },
  {
    "molecule": "O=C1Nc2cc(Br)ccc2/C1=C1/Nc2ccccc2/C1=N\\O",
    "residual activity (%)": 24
  },
  {
    "molecule": "Cc1ccc(NC2=CC(=O)c3sc(C)nc3C2=O)cc1",
    "residual activity (%)": 111
  },
  {
    "molecule": "Cn1nc2c3c(cccc31)C(=O)c1ccccc1-2",
    "residual activity (%)": 67
  },
  {
    "molecule": "CO[C@H]1[C@@H](OC)C[C@H](C)[C@@H](OC)C2=CC(=O)C=C(NC(=O)/C(C)=C/C=C/[C@H](OC)[C@@H](OC(N)=O)/C(C)=C/[C@@H]1C)C2=O",
    "residual activity (%)": 91
  },
  {
    "molecule": "Oc1ccc(-c2nc(-c3ccc(F)cc3)c(-c3ccncc3)[nH]2)cc1",
    "residual activity (%)": 92
  },
  {
    "molecule": "COc1ccc(CNc2nc(N(CCO)CCO)nc3c2ncn3C(C)C)cc1",
    "residual activity (%)": 56
  },
  {
    "molecule": "O=c1cc(-c2cccc3c2Sc2ccccc2S3)oc(N2CCOCC2)c1",
    "residual activity (%)": 87
  },
  {
    "molecule": "CCC(=O)Nc1ccc2ncnc(Nc3cccc(Br)c3)c2c1",
    "residual activity (%)": 82
  },
  {
    "molecule": "CNc1cc2c(Nc3cccc(Br)c3)ncnc2cn1",
    "residual activity (%)": 74
  },
  {
    "molecule": "O=C1NC(=O)c2cc(Nc3ccc(F)cc3)c(Nc3ccc(F)cc3)cc21",
    "residual activity (%)": 100
  },
  {
    "molecule": "O=Nc1c(-c2c(O)[nH]c3ccccc23)[nH]c2ccccc12",
    "residual activity (%)": 12
  }
]

All figures here come from ChEMBL document CHEMBL2218924.
